B1: library; numbered along this chain (parent)
chain: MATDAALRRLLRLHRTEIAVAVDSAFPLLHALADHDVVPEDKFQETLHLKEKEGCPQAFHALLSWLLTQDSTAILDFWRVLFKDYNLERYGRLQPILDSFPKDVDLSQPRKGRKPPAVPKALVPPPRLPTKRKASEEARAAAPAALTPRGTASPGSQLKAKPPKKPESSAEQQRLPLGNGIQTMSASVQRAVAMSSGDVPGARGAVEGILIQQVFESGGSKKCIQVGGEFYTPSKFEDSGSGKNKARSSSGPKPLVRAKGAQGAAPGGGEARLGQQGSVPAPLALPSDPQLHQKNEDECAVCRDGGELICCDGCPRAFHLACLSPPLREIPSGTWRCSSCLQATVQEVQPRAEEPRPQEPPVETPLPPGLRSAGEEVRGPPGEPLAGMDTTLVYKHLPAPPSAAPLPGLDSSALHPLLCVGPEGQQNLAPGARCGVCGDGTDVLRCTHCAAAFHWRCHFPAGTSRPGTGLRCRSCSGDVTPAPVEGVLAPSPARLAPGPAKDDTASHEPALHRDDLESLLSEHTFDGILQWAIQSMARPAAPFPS

Variants of: B1
Assay: AIRE transcriptional activation functional score (insulin promoter-GFP; nonsense median 0, synonymous median 1) (normalised score); higher = higher AIRE activity (more reporter activation)
Details: with insulin promoter-GFP reporter in HEK293
assay_readout: AIRE transcriptional activation functional score
No unit in the answer, only the number.

Recorded results for 3 variants are shown here.
> print(dat)
   mutant.name  experimental.value
1        F525Q              -0.479
2        T441F               0.823
3        A452M               0.473

May I ask what AIRE transcriptional activation functional score has been recorded for `P326C` ? 1.19

One more variant: `L106T` 0.979

Ok, now `S535I` 0.212

Check `L406A` too. 0.954

Entry to check: `R378T` 0.986

Same question, `E88G` this time -0.0199

Also, `V118D` please. 0.403

Further, for `P497D` ? 0.292

Next variant: `P282I` 1.43

Further, for `P95E` ? 0.792

Values compiled from the supplement of paper PMC12667976.
